Give growth for every item shown.
- Tested on: E. coli TESEC Mtb Alr
- testProtocol: growth (OD600 after 10 h); higher = more growth (less inhibition)
- assaySetup: arabinose 10000 nM; compound 0.1 mM; raw OD600 reference: median of DMSO wells 0.264, cell-free background 0.041
Structures can show the parent of a compound that is named as a salt.
Give bare numbers.

In the examples that follow, each entry is paired with its recorded growth.
compound	growth
CCCc1nc2c(C)cc(-c3nc4ccccc4n3C)cc2n1Cc1ccc(-c2ccccc2C(=O)O)cc1 [Telmisartan]	0.291
C[C@H](N)[C@H](O)c1cccc(O)c1 [Metaraminol bitartrate]	0.267
NC1CCN(c2c(F)cc3c(=O)c(C(=O)O)cn(C4CC4)c3c2Cl)C1 (configuration not stated) [Clinafloxacin]	0.0399

I need growth for every entry listed below, if you could help.
1. CC(C)CC(=O)N[C@H](C(=O)N[C@H](C(=O)N[C@@H](CC(C)C)[C@@H](O)CC(=O)N[C@@H](C)C(=O)N[C@@H](CC(C)C)[C@@H](O)CC(=O)O)C(C)C)C(C)C [Pepstatin A]
2. CO[C@H]1/C=C/O[C@@]2(C)Oc3c(C)c(O)c4c(O)c(c(/C=N/N5CCN(C)CC5)c(O)c4c3C2=O)NC(=O)/C(C)=C\C=C\[C@H](C)[C@H](O)[C@@H](C)[C@@H](O)[C@@H](C)[C@H](OC(C)=O)[C@@H]1C [Rifampicin]

1. 0.271
2. 0.0412

Batch of 2 compounds: report growth for each.
1. NC(=O)N/N=C/c1ccc([N+](=O)[O-])o1 [Nitrofural]
2. CC[C@@H](CO)NCCN[C@@H](CC)CO [Ethambutol dihydrochloride]

1: 0.0419; 2: 0.255
